B1: Zinc finger homeobox protein 3, residues 2643 to 2698; numbered along this chain, Q15911 (parent)
chain: RLRTTITPEQLEILYQKYLLDSNPTRKMLDHIAHEVGLKKRVVQVWFQNTRARERK

Variants of: B1
Test: abundance fitness (aPCA) (normalised: wild type 0, dead -1); higher = more abundant; growth selection in yeast, the domain comes from the species named
Conditions: Homo sapiens
assay.endpoint: abundance fitness
Give the figure only, with no unit attached.

Can you look up the measured abundance fitness of L29S for me? -0.488

Entry I32A : reported abundance fitness = ? -0.886

Need abundance fitness, item L38T -0.616

Query (variant): L11D ; field requested: abundance fitness 0.17

// lookup abundance fitness for P24V -0.785

Form field: reported abundance fitness of V42I -0.073

Reported abundance fitness, variant R3P : ____ -0.081

May I ask what abundance fitness has been recorded for S22G ? -0.034

Could you share which abundance fitness value was measured for T5F ? -0.358

Reported abundance fitness, variant D21G : ____ -0.321

Can you look up the measured abundance fitness of R41Y for me? -0.129

State the recorded abundance fitness for this entry: Q16W -0.615

Look up abundance fitness for this variant: V45Y -0.263

What value of abundance fitness has been recorded for this entry: E54R -0.701

What value of abundance fitness has been reported for the following variant? H31M 0.073

Request the reported abundance fitness associated with L2S 0.331

For the variant shown here, A52Y , give the reported abundance fitness. -0.221

Given Q16L , state its recorded abundance fitness. 0.572

Any idea what abundance fitness was measured for V43D ? -0.867

I have this variant here, D30H , and I need its recorded abundance fitness. 0.007

Which measured abundance fitness value corresponds to P24A ? -0.82

Which abundance fitness reading was recorded for the variant R55E ? 0.255

Recorded abundance fitness for I13N , please? -0.287

If you can, please state the reported abundance fitness value of E9M . -0.272

Look up abundance fitness: T25V -0.349

Field request: abundance fitness | item: R55H 0.001

Form field: reported abundance fitness of D30F -0.446

Would you kindly share the measured abundance fitness for V45F ? -0.028

Need abundance fitness of E54L , thanks. -0.2

What abundance fitness value was documented for this variant, V42Y ? -0.021

What does the data say about its abundance fitness? Entry: R3C 0.216

What abundance fitness value was documented for this variant, F47V ? -0.902

Item L2I has what recorded abundance fitness? 0.217

Entry L14K has what abundance fitness? -0.899

Quick check: abundance fitness of R51T ? -0.305

Which abundance fitness reading was recorded for the variant Y15C ? -0.368

Give its abundance fitness value. Item: H31F -0.068

Recorded abundance fitness for R3M , please? 0.317

Could you share which abundance fitness value was measured for E35T ? 0.063

Please look up its abundance fitness: S22W -0.491

Param item = N49V ; retrieve measured abundance fitness. -0.229

Which value of abundance fitness has been reported for E9N in the records? -0.218

For the variant shown here, E12G , give the reported abundance fitness. -0.228

Given V36K , state its recorded abundance fitness. -0.985

Requested read-out: abundance fitness. Entry: V43H -0.973

Would you mind telling me what abundance fitness value was observed for H34L ? -0.225

Would you mind telling me what abundance fitness value was observed for Y15R ? 0.032

Form field: reported abundance fitness of L20C -0.022

Could you share which abundance fitness value was measured for R55P ? 0.105

Look up abundance fitness for this variant: D30Q 0.1

Fill in: abundance fitness of R3L is ___ 0.186

Tell me the measured abundance fitness of V36I , please. 0.191

So what's the measured abundance fitness for this one? L2F 0.082

// returns reported abundance fitness for input L20E -0.079

Returns the measured abundance fitness for the input variant. Input: L20T -0.057

Using the record for E9W , report its abundance fitness. -0.516

Quick check: abundance fitness of K56R ? -0.35

Can you share its abundance fitness? I mean this variant: R26V 0.383

Endpoint output: abundance fitness of H34W . Value? -0.095

// abundance fitness lookup, key: E35K -0.356

Consider the variant shown here: V45I What is its recorded abundance fitness? 0.158

Look at this variant and give its reported abundance fitness. Y15S 0.138

Entry D21M has what abundance fitness? -0.22

Which measured abundance fitness value corresponds to W46Q ? -0.829

Request the reported abundance fitness associated with V42C -0.021

Suppose we examine the variant T5Y ; what abundance fitness value has been reported? -0.319

Looking for the measured abundance fitness of P24R , can you help? -0.828

So what does the record say about abundance fitness for V43G ? -0.937

Endpoint output: abundance fitness of K40C . Value? -0.195

Endpoint output: abundance fitness of R53D . Value? 0.31
